B1: ACSBG2 (parent)
chain: FAQADALKGTLVSTLKEVKPTVFI

Variants of: B1
protocol: protein stability index of a GFP-peptide fusion (GPS, HEK-293T) (PSI 1-6); higher = more stable;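 note: lentivirally expressed fusions sorted by FACS into six bins by GFP to DsRed ratio, PSI derived from sequencing read proportions per bin multiplied by bin number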
protocol conditions: c terminus: a fixed tail appended
Kindly supply the reported protein stability index values for the records listed here.
Answers are plain numbers.

Record excerpt, results attached:
[[record]]
alteration = "T14K"
data_value = 2.03

[[record]]
alteration = "A4D"
data_value = 2.74

[[record]]
alteration = "A2T"
data_value = 1.56


Would you mind giving protein stability index for every variant in the list below?
1. A6Y
2. F23A
3. V18H
4. T14Q
5. K19W
6. L11Q

1. 3.07
2. 1.96
3. 1.28
4. 1.95
5. 1.99
6. 2.88

Would you mind giving protein stability index for every variant in the list below?
1. S13P
2. S13N

1: 1.41; 2: 2.01

Would you mind giving protein stability index for every variant in the list below?
1. V18W
2. S13A

[3.71, 2.1]

Would you mind giving protein stability index for every variant in the list below?
1. V22Y
2. A2N
3. S13D
4. V12M

1.67
1.45
1.85
1.66

Would you mind giving protein stability index for every variant in the list below?
1. A6N
2. L7P
3. K19S
4. K19Y
5. L7T
6. F1Q

[1.58, 2.05, 2.45, 2.36, 2.02, 3.73]

Would you mind giving protein stability index for every variant in the list below?
1. L11H
2. I24K
3. E17C
4. L15Y
5. V12S
6. V12Q
7. D5I

[1.72, 2.41, 2.06, 1.78, 1.34, 1.52, 2.7]

Would you mind giving protein stability index for every variant in the list below?
1. K19P
2. V22N
3. P20R
4. I24L

2.84
1.98
2.28
1.05

Would you mind giving protein stability index for every variant in the list below?
1. A2C
2. K16S
3. T21N
4. I24V
5. Q3G

1: 1.85; 2: 2.25; 3: 1.92; 4: 1.83; 5: 3.16
